# TARGET: feline FcRn complex (FcRn-α subunit and β-microglobulin), biotin labeled (feline)
# PROTOCOL: SPR, pH 6
READOUT_NAME: pKd
Notebook: values listed as pKd are -log10 of the concentration (mol/L).

# BINDER, READOUT_NAME, OBSERVED_RESULT
records = [
    ("feline IgG1a Q311W/S434Y (antibody, part only; not given: Variable domains, not shown: another chain or arm of the molecule) constant: ASTTAPSVFPLAPSCGTTSGATVALACLVLGYFPEPVTVSWNSGALTSGVHTFPAVLQASGLYSLSSMVTVPSSRWLSDTFTCNVAHPPSNTKVDKTVRKTDHPPGPKPCDCPKCPPPEMLGGPSIFIFPPKPKDTLSISRTPEVTCLVVDLGPDDSDVQITWFVDNTQVYTAKTSPREEQFNSTYRVVSVLPILHWDWLKGKEFKCKVNSKSLPSPIERTISKAKGQPHEPQVYVLPPAQEELSRNKVSVTCLIKSFHPPDIAVEWEITGQPEPENNYRTTPPQLDSDGTYFVYSKLSVDRSHWQRGNTYTCSVSHEALHYHHTQKSLTQSPGK", "pKd", 7.57),
]

Please examine the following record next.
Prompt: Item feline IgG1a A431V (antibody, part only; not given: Variable domains, not shown: another chain or arm of the molecule) constant: ASTTAPSVFPLAPSCGTTSGATVALACLVLGYFPEPVTVSWNSGALTSGVHTFPAVLQASGLYSLSSMVTVPSSRWLSDTFTCNVAHPPSNTKVDKTVRKTDHPPGPKPCDCPKCPPPEMLGGPSIFIFPPKPKDTLSISRTPEVTCLVVDLGPDDSDVQITWFVDNTQVYTAKTSPREEQFNSTYRVVSVLPILHQDWLKGKEFKCKVNSKSLPSPIERTISKAKGQPHEPQVYVLPPAQEELSRNKVSVTCLIKSFHPPDIAVEWEITGQPEPENNYRTTPPQLDSDGTYFVYSKLSVDRSHWQRGNTYTCSVSHEVLHSHHTQKSLTQSPGK has what recorded pKd?
Completion: 8.15

Cited source for all entries: patent US20240400708A1
